B1: glmS ribozyme (parent)
chain: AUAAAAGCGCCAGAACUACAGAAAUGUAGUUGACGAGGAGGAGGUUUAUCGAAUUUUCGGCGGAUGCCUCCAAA

Variants of: B1
TEST: self-cleavage kobs at 640 uM GlcN6P; higher = faster cleavage; RNA array
EXPERIMENTAL_PARAMETERS: with glucosamine-6-phosphate
Variants at the floor of the assay were thinned out.
QUANTITY_KIND: self-cleavage kobs at 640 uM GlcN6P (s⁻¹)

SEQUENCE_TEXT	OPERATOR_SYMBOL	NUMBER
AUAAAAGCGCCAGAACUACAGAAAUGUAGUUGACGAGGAGGAGGUUUAUCGAGUUUUCGGCGGAUGGCUCCAAA [A53G C67G]	=	0.00225
AUAAAAGCGCCAGAACUACAGAAAUGUACUUGACGAGGAGGAGGUUUGUCGAAUUUUCGACGGAUGCCUCCAAA [G29C A48G G60A]	<	1e-05
AUAAAAGCGGCAGAACUACAGAAAUGUAGUUGACGAGGAGGAGGUUUAUCGAAUUUUCGGCGGAUGCGUCUAAA [C10G C68G C71U]	=	3.95e-05
AUAAAAUUGCCAGAACUACAGAAAUGUAGUUGACGAGGAUGAGGUUUAUCGAAUUUUCGGCCGAUGCCUCCAAA [G7U C8U G40U G62C]	<	1e-05
AUAAAAGCGCCAGAACUACAGAAAUGUAGUUGACGAGGAGGAAGUUUAUCGAAUUUUCGGCGGAUGUCUCCAAA [G43A C67U]	=	6.14e-05
AUAAAAUCGCCAGAACUACAGAAAUGUAGUUGACAACGAGGAGGUGAAUCGAAUUUUCGGCGGAUGCCUGCAAA [G7U G35A G37C U46G U47A C70G]	<	1e-05
AUAAAAGCGCCAGAACUACAGAAAUGUAGUUGACGAGGAGGAGGUUUAUCGAAUUUUCGGCCGAUGCCCCCAAA [G62C U69C]	<	1e-05
AUAAAAGCGCCAGAACUACAGAAAUGUAGUUGACGAGGACGAGGUUUAUCGAAUUUUCGGCGGUUGCCUCCAAA [G40C A64U]	<	1e-05
AUAAAAGCGCCAGGACUACAGAAAUGUAGUUGGCGAAGAGGAGGUUUAUGGAAUUUUCGGCGGAUGCCUGCAAA [A14G A33G G37A C50G C70G]	=	6.3e-05
AUAAAAGCGCCAGAACUACAGAAAUGUAGUUGAGGAGGAGGAGGUUUAUCGAAUUUUCGGCGGAUGUCUCCAAA [C34G C67U]	<	1e-05
AUAAAAUCGCCAGAACUACAGAAAUGUAGUUUACGAGGAGGAGGUUUAACGAAUUUUCGGCGGAUGCCUCCAAA [G7U G32U U49A]	<	1e-05
AUAAAAGCGCCAGAACUACAGAAAUGUAAUUGAUGAGGAGGAGGUUUAUCGAAUUUUCGUCGGAUGCCUCCAAA [G29A C34U G60U]	<	1e-05
AUAAAACCGCCAGCACUACAGAAAUGUAGUUGACGAGGAGGAGAUUUAUCGAAUUUUCGGCGAAUGCCUCCAAA [G7C A14C G44A G63A]	<	1e-05
AUAAAAGCGCCAGAACUACAGAAAUGUAGUUGACGAGGAGGAGGUUUAUCGAAAUAUCGGCGGAUGCCUCCAAA [U54A U56A]	=	0.00224
AUAAAAGCGUCAGACCUACAGAAAUGUAGUUGACGAGGAGGAUGUUUAUUGAAUUUGCAGCGGAUGCCUCCAAA [C10U A15C G43U C50U U57G G59A]	<	1e-05
AUAAAAACGCCAGAACUACAGAAAUGUAGUUGACGAGGAGGAGGUUUAUAAAAUUUUCGGCGGAUGCCUCCAAA [G7A C50A G51A]	<	1e-05
AUAAAAGCGCCAAAACUACAGAAAUGUAGUUGACGAGGAGGAGGUUUAUCGAUUUUUAGGCGGAUGCCUCCAAA [G13A A53U C58A]	=	6.46e-05
AUAAAACCGCCAGCACUACAGAAAUGUAGUUGACGAGGAGGAGGUGUAUCGAAUUUUCGGCGGAUGCCUCCAAA [G7C A14C U46G]	<	1e-05
AUAAAAGCGCAAGAACUACAGAAAUGUAGUUGACGAGGAGGAGGUUUAUCGAAUUUUCGGCGGAUGCCUCUAAA [C11A C71U]	=	7.03e-05
AUAAAAGCGCCUGCACUACAGAAAUGUAGUUGACGAGGAGGAGGUUAAUCGAAUUUUCGGCGGAUGCCUCCAAA [A12U A14C U47A]	=	0.000593
AUAAAAGCGCGAGAACUACAGAAAUGUAGUUGACGAGGAGUAGGUUUAUUGAAUUUUCGGCGGAUGCCUCCAAA [C11G G41U C50U]	<	1e-05
AUAAAAGCGCCAGAAAUACAGAAAUGUAGUUGACGAGGAGGAGGUUUAUCGAAUUUUCGGCGGAUGCCUCAAAA [C16A C71A]	=	7.22e-05
AUAAAAGCGCUAGAACUACAGAAAUGUAGUUGACGAGGAGGAGGUUUAUCGAGUUUUCGGCGGAUACCUCCAAA [C11U A53G G66A]	=	0.000178
